Experiment: Absorption maximum of the compound in EtOH
Assay type: physicochemical
# key: entry, value: Activity
Hi, when you answer, please include the unit after the number. Thanks!

Below, 5 compounds whose answers are already recorded.
COMPOUND: CCSc1ccc2c(c1)C1=Nc3c4ccc(SCC)cc4c4n3[B-]3(OCc5ccc6c(c5)OCCOCCOCCOCCOCCO6)n5c(c6cc(SCC)ccc6c5=N4)=NC2=[N+]13 (centres undefined)
READING: 583 nm

COMPOUND: COC(=O)[C@H](Cc1ccc(O[B@@-]23n4c5c6ccc(I)cc6c4N=c4c6ccc(I)cc6c(n42)=NC2=[N+]3C(=N5)c3ccc(I)cc32)cc1)NC(=O)OC(C)(C)C
READING: 568 nm

COMPOUND: Ic1ccc2c(c1)C1=[N+]3C2=Nc2c4ccc(I)cc4c4n2[B@-]3(OCc2ccc3c(c2)OCCOCCOCCOCCOCCO3)n2c(c3cc(I)ccc3c2=N4)=N1
READING: 569 nm

COMPOUND: Cl[B-]12n3c4c5ccc(I)cc5c3N=c3c5ccc(I)cc5c(n31)=NC1=[N+]2C(=N4)c2ccc(I)cc21 (centres undefined)
READING: 569 nm

COMPOUND: COC(=O)[C@@H](N)Cc1ccc(O[B-]23n4c5c6ccc(I)cc6c4N=c4c6ccc(I)cc6c(n42)=NC2=[N+]3C(=N5)c3ccc(I)cc32)cc1 (some centres undefined)
READING: 569 nm

Req: Item `CCSc1ccc2c(c1)C1=Nc3c4ccc(SCC)cc4c4n3[B@-]3(Oc5ccc(C[C@H](N)C(=O)OC)cc5)n5c(c6cc(SCC)ccc6c5=N4)=NC2=[N+]13` has what recorded Activity?
Resp: 583 nm

Req: Item CCSc1ccc2c(c1)C1=Nc3c4ccc(SCC)cc4c4n3[B-]3(Oc5ccc(C[C@H](NC(=O)OC(C)(C)C)C(=O)OC)cc5)n5c(c6cc(SCC)ccc6c5=N4)=NC2=[N+]13 (some centres undefined) has what recorded Activity?
Resp: 582 nm

Req: Item COC(=O)[C@H](Cc1ccc(O[B-]23n4c5c6c(F)c(F)c(F)c(F)c6c4N=c4c6c(F)c(F)c(F)c(F)c6c(n42)=NC2=[N+]3C(=N5)c3c(F)c(F)c(F)c(F)c32)cc1)NC(=O)OC(C)(C)C (some centres undefined) has what recorded Activity?
Resp: 567 nm

Req: Item Fc1c(F)c(F)c2c(c1F)C1=Nc3c4c(F)c(F)c(F)c(F)c4c4n3[B-]3(OCc5ccc6c(c5)OCCOCCOCCOCCOCCO6)n5c(c6c(F)c(F)c(F)c(F)c6c5=N4)=NC2=[N+]13 (centres undefined) has what recorded Activity?
Resp: 567 nm

###

Assay: Induction of singlet oxygen generation in THF assessed as singlet oxygen quantum yield
Format: functional
# key: entry, value: Activity
API note: the answer field is a bare number with no unit suffix.

Below, 2 compounds whose answers are already recorded.
COMPOUND: Fc1c(F)c(F)c2c(c1F)C1=Nc3c4c(F)c(F)c(F)c(F)c4c4n3[B-]3(OCc5ccc6c(c5)OCCOCCOCCOCCOCCO6)n5c(c6c(F)c(F)c(F)c(F)c6c5=N4)=NC2=[N+]13 (stereo not drawn)
Activity: 0.086

COMPOUND: CCSc1ccc2c(c1)C1=Nc3c4ccc(SCC)cc4c4n3[B-]3(Oc5ccc(C[C@H](NC(=O)OC(C)(C)C)C(=O)OC)cc5)n5c(c6cc(SCC)ccc6c5=N4)=NC2=[N+]13 (stereo partly drawn)
Activity: 0.64

Now examine the next entry.
Req: Item `CCSc1ccc2c(c1)C1=Nc3c4ccc(SCC)cc4c4n3[B@-]3(Oc5ccc(C[C@H](N)C(=O)OC)cc5)n5c(c6cc(SCC)ccc6c5=N4)=NC2=[N+]13` has what recorded Activity?
Resp: 0.49
